Molecular target: DENND5A
Test: reporter assay of Huesken 2005
Settings: siRNA
Oligonucleotides are written 5' to 3', each unit as a sugar letter and its base; * is a phosphorothioate linkage, no mark a phosphodiester; rarer units and linkages stand in square brackets, end groups in braces. Plain capitals give the bases only. d = 2'-deoxy (DNA); r = 2'-OH (RNA)
Classification by normalised inhibition (eCFP-eYFP dual reporter) follows these ranges: low bracket: < 50%; middle bracket: ≥ 50% and < 70%; high bracket: ≥ 70%

substance	study-system	assigned-label
sense rUrUrArCrCrArGrArGrArCrUrGrArUrGrArCrUdTdT / antisense rArGrUrCrArUrCrArGrUrCrUrCrUrGrGrUrArAdTdG	DENND5A	low bracket
sense rCrUrCrArArGrArUrUrCrCrUrGrGrArGrArCrCdTdT / antisense rGrGrUrCrUrCrCrArGrGrArArUrCrUrUrGrArGdAdG	DENND5A	middle bracket

Sort into band: sense rUrCrUrUrUrCrArArUrGrCrCrGrUrCrGrArUrUdTdT / antisense rArArUrCrGrArCrGrGrCrArUrUrGrArArArGrAdCdA
middle bracket

Which category fits this record: sense rCrUrUrCrUrArArArGrCrCrArGrGrGrArUrGrGdTdT / antisense rCrCrArUrCrCrCrUrGrGrCrUrUrUrArGrArArGdCdC
low bracket

Sort into band: sense rArGrArGrGrGrArGrArArGrUrArCrArUrCrCrAdTdT / antisense rUrGrGrArUrGrUrArCrUrUrCrUrCrCrCrUrCrUdGdG
high bracket

Bin? sense rArUrUrGrArCrCrArUrArCrUrGrCrArArUrUrCdTdT / antisense rGrArArUrUrGrCrArGrUrArUrGrGrUrCrArArUdTdT
low bracket

Which category does the recorded normalised inhibition (eCFP-eYFP dual reporter) put sense rArUrUrCrCrUrArCrGrArGrCrUrUrCrUrUrArAdTdT / antisense rUrUrArArGrArArGrCrUrCrGrUrArGrGrArArUdGdC in?
middle bracket

Bin? sense rGrGrArArArArGrUrUrGrGrArArGrUrGrCrGrUdTdT / antisense rArCrGrCrArCrUrUrCrCrArArCrUrUrUrUrCrCdAdG
middle bracket

---

Target: UBE2W
Assay: reporter assay of Huesken 2005
Details: siRNA
Oligonucleotides are written 5' to 3', each unit as a sugar letter and its base; * is a phosphorothioate linkage, no mark a phosphodiester; rarer units and linkages stand in square brackets, end groups in braces. Plain capitals give the bases only. d = 2'-deoxy (DNA); r = 2'-OH (RNA)
quantity-measured: normalised inhibition (eCFP-eYFP dual reporter) (%)
Form entry: value (%) — number only.

substance	endpoint-result
sense rGrUrGrArArArArUrArUrUrCrCrUrGrUrUrCrAdTdT / antisense rUrGrArArCrArGrGrArArUrArUrUrUrUrCrArCdCdA	82

Quick one: normalised inhibition (eCFP-eYFP dual reporter) for sense rArGrGrUrGrCrArCrCrArGrGrUrArCrCrUrUrAdTdT / antisense rUrArArGrGrUrArCrCrUrGrGrUrGrCrArCrCrUdTdC ?
93.2

Name the recorded normalised inhibition (eCFP-eYFP dual reporter) for sense rGrArCrCrArCrCrGrGrArUrArArUrUrCrUrUrUdTdT / antisense rArArArGrArArUrUrArUrCrCrGrGrUrGrGrUrCdGdT .
96.4

# lookup: normalised inhibition (eCFP-eYFP dual reporter) of sense rCrUrCrCrUrGrGrArArUrGrArCrCrUrUrArArAdTdT / antisense rUrUrUrArArGrGrUrCrArUrUrCrCrArGrGrArGdGdT
100

Entry sense rArArGrArGrUrGrUrUrCrArArArArUrUrCrArAdTdT / antisense rUrUrGrArArUrUrUrUrGrArArCrArCrUrCrUrUdCdT : reported normalised inhibition (eCFP-eYFP dual reporter) = ?
114

Entry sense rUrArUrUrCrCrUrGrUrUrCrArUrCrCrUrCrArUdTdT / antisense rArUrGrArGrGrArUrGrArArCrArGrGrArArUrAdTdT : reported normalised inhibition (eCFP-eYFP dual reporter) = ?
104

What normalised inhibition (eCFP-eYFP dual reporter) value was documented for this substance, sense rCrUrUrUrCrCrArGrCrUrGrCrArArGrGrArArAdTdT / antisense rUrUrUrCrCrUrUrGrCrArGrCrUrGrGrArArArGdCdA ?
103

Any idea what normalised inhibition (eCFP-eYFP dual reporter) was measured for sense rUrArUrCrCrArUrUrCrUrArArCrArGrArArGrAdTdT / antisense rUrCrUrUrCrUrGrUrUrArGrArArUrGrGrArUrAdAdA ?
83.9

For the substance sense rArUrGrGrArArGrGrUrGrCrArCrCrArGrGrUrAdTdT / antisense rUrArCrCrUrGrGrUrGrCrArCrCrUrUrCrCrArUdGdT , what normalised inhibition (eCFP-eYFP dual reporter) is on record?
86.1

# query: normalised inhibition (eCFP-eYFP dual reporter) of entry sense rUrArCrCrUrUrArUrArUrGrArArGrGrGrGrArAdTdT / antisense rUrUrCrCrCrCrUrUrCrArUrArUrArArGrGrUrAdCdC
111

Which measured normalised inhibition (eCFP-eYFP dual reporter) value corresponds to sense rArArArArUrUrCrArArUrUrArCrArCrArGrUrGdTdT / antisense rCrArCrUrGrUrGrUrArArUrUrGrArArUrUrUrUdGdA ?
76.8

Can you share its normalised inhibition (eCFP-eYFP dual reporter)? I mean this substance: sense rUrGrCrArCrCrArGrGrUrArCrCrUrUrArUrArUdTdT / antisense rArUrArUrArArGrGrUrArCrCrUrGrGrUrGrCrAdCdC
78

Values were extracted from the OligoGym collection.
